Reference source: ChEMBL document CHEMBL1201862

- System: RXF 393
- assayExplanation: NCI tumour cell line growth inhibition, 48 h
Activity calls are given as the source filed them. No stated cut-off is given here; in the data, active = GI50 up to about 1.1 µM and inactive = higher.
assayEndpoint: GI50

Task item: Reported GI50 for RXF 393, given CC/C(Cl)=N\OC(=O)Nc1ccccc1OC(F)(F)F ?
Reply: 16.7 µM (inactive)

Task item: Query CC(=O)OCC1OC(Sc2nc(-c3ccc(C)cc3)c(C#N)c(=O)n2C2OC(COC(C)=O)C(OC(C)=O)C(OC(C)=O)C2OC(C)=O)C(OC(C)=O)C(OC(C)=O)C1OC(C)=O (stereo not given) next
Reply: > 100 µM (inactive)

Task item: Queued: Cc1sc(N)c(S(=O)(=O)c2ccccc2)c1C
Reply: > 100 µM (inactive)

Task item: Same read-out for Cc1cc(S(=O)(=O)O)c(NC(=O)C(=O)Cc2cc(=O)oc3cc(O)ccc23)cc1Cl ?
Reply: > 100 µM (inactive)

Task item: Check Cc1cc(N)ccc1/N=N\c1ccc(S(=O)(=O)CCOS(=O)(=O)O)cc1 too.
Reply: 10.8 µM (inactive)

Task item: Same again, this time with O=NN(CCCl)C(=O)NC1CCSc2ccccc21 (stereo not given)
Reply: > 100 µM (inactive)

Task item: For O=C1CCC(=O)N1n1c(Cc2ccccc2)n[nH]c1=O then?
Reply: > 100 µM (inactive)

Task item: Also, O=c1c(Cl)c(Cl)cnn1CCCl please.
Reply: 2.09 µM (inactive)

Task item: What do you have for Cc1ccc(NC(=O)CCC(=O)C2Cc3ccccc3C2=O)cc1C (stereo not given) ?
Reply: > 100 µM (inactive)

Task item: Also N[C@@H]1CCN(c2c(F)cc3c(=O)c(C(=O)O)cn4c3c2Oc2c-4ccc3c2ccc2ccccc23)C1 , if possible.
Reply: 1.2 µM (inactive)

====

- Tested on: HCC 2998
- assayExplanation: NCI tumour cell line growth inhibition, 48 h
The source made the active and inactive calls. Rule as the data show it: active = GI50 up to about 1.1 µM and inactive = higher.
assayEndpoint: GI50

Task item: Return reported GI50; argument: CCCCCC1CC(C(C)=O)CN1c1ccc(F)cc1 (centres undefined)
Reply: 38.1 µM (inactive)

Task item: Next: O=C1CCCCCCCCCCC1CN1CCCC1 (centres undefined)
Reply: 20 µM (inactive)

Task item: Quick one: COc1ccc2[nH]c(C(=O)N3CC(CCl)c4ccc(N)cc43)cc2c1 (centres undefined)
Reply: 0.14 µM (active)

Task item: Next up: COc1cc(Nc2nc3ccc(C(F)(F)F)cc3nc2C(=O)O)cc(OC)c1OC
Reply: 18.6 µM (inactive)

Task item: Try the molecule Cc1cc(NS(=O)(=O)c2ccc(/N=N/c3c(Nc4ccccc4)nn(-c4ccc(S(=O)(=O)Nc5ccncn5)cc4)c3C)cc2)no1
Reply: > 100 µM (inactive)

Task item: Can you check O=S(=O)(C/C(=N\O)c1ccccc1)c1ccccc1 next?
Reply: > 100 µM (inactive)

Task item: And then COC(=O)c1c(-c2ccccc2)c2sc3ccccc3n2c1N , what is it?
Reply: 31.5 µM (inactive)

Task item: Proceed to COC(=O)C1CCC(=S)N1C(=O)c1ccccc1 (centres undefined)
Reply: 77.6 µM (inactive)

Task item: Another molecule to look at: CN(C)c1ccc(/N=C2/NC(=N\c3ccccc3)/C(=N/c3ccccc3)S2)cc1
Reply: > 100 µM (inactive)

Task item: And for Cc1sc(Nc2ccc(Nc3nc(-c4ccccc4)c(C)s3)cc2)nc1-c1ccccc1 ?
Reply: 16.9 µM (inactive)

Task item: What about this molecule? Cn1cco/c1=N/c1ccc(Cl)c(Cl)c1
Reply: > 10 µM (inactive)

Task item: Follow-up entry: N#C/N=C(/N)NCN/C(N)=N\C#N
Reply: > 100 µM (inactive)

Task item: Now the molecule COc1ccc(Oc2cccc(/C=C3/C(=O)Nc4ccccc43)c2)cc1
Reply: 9.31 µM (inactive)

Task item: Let us now turn to CCOC(=O)c1cc(C2CCN(CC(C)CC)C2=S)c(-c2cc(C)no2)[nH]1 (centres undefined)
Reply: > 100 µM (inactive)

Task item: // next record COC(=O)C(=Cc1cc(OC)c(OC)c(OC)c1-c1cc2c(cc1C1(C)OCCS1)OCO2)C(=O)OC (centres undefined)
Reply: 32.2 µM (inactive)

Task item: Thanks! And N#C/C(C(=O)Nc1ccccc1)=C(/N)N1CCCCC1 ?
Reply: > 100 µM (inactive)

Task item: Next: O=C1CCC2(CCC(=O)NC2=O)C(=O)N1
Reply: > 100 µM (inactive)

Task item: Next molecule up: NS(=O)(=O)c1nnc(NS(=O)(=O)C(F)(F)F)s1
Reply: > 100 µM (inactive)

Task item: Also check NC12CC3CC(C1)CC(C(=O)O)(C3)C2
Reply: > 100 µM (inactive)

Task item: Try this molecule next: COC(=O)[C@@H]1Cc2c([nH]c3ccccc23)[C@H](c2ccccc2)N1
Reply: 31.2 µM (inactive)

Task item: How about this molecule: CCN(CC)c1ccc2c(c1)Oc1ccc(N(C(C)=O)c3ccccc3)cc1C21OC(=O)c2ccccc21 (centres undefined)
Reply: > 100 µM (inactive)

Task item: How about COC(=O)CC1(CNC(=O)OCc2ccccc2)OCCO1 ?
Reply: > 100 µM (inactive)

Task item: Can you handle Nc1nc(N)c2c(Cl)c(CNc3ccc(Cl)c(Cl)c3)ccc2n1 next?
Reply: 0.0146 µM (active)

Task item: Item: COC(=O)/C(C#N)=C(/NCc1ccccc1)Nc1ccccc1
Reply: > 100 µM (inactive)

Task item: Now consider [N-]=[N+]=CC(=O)c1ccccc1C#CCCc1ccccc1 and answer again.
Reply: 31.8 µM (inactive)

Task item: Again, but for CC1C(O)C2(Oc3cc4c(c5c3[C@@H](CC5O)[C@H]2C)CCC2Cc3nc5c(nc3C[C@@]42C)CC2CCC3C4=C[C@H]6O[C@@]7(O[C@@](C)(CO)C[C@@H]7O)C(C)[C@@]6(O)[C@]4(C)[C@@H](O)CC3[C@]2(C)C5)OC1(C)C (some centres undefined)
Reply: 0.536 µM (active)

Task item: For C=CCN1C2Cc3cc(OC)c(OC)cc3C1Cc1cc(OC)c(OC)cc12 then?
Reply: > 100 µM (inactive)

Task item: Then this molecule: Cc1nc(-n2nc(-c3ccccc3)cc2-c2ccccc2)sc1C(=O)/C=C/c1ccc(/C=C/C(=O)c2sc(-n3nc(-c4ccccc4)cc3-c3ccccc3)nc2C)cc1
Reply: 20.1 µM (inactive)

Task item: Further, for O=C(N/N=C/c1ccc(Cl)cc1)c1c(Cl)c(Cl)c(Cl)c(Cl)c1-c1nc2ccccc2[nH]1 ?
Reply: 5.5 µM (inactive)

Task item: Another molecule to look at: CNC1C(O)C(OC2C(N)CC(N)C(OC3OC(CN)=CCC3N)C2O)OCC1(C)O (centres undefined)
Reply: > 100 µM (inactive)

Task item: How about CO/N=C1\CC(C)N2C(=O)C(C(C)C)NC(=O)C(NC(=O)c3c4nc5c(C(=O)NC6C(=O)NC(C(C)C)C(=O)N7C(C)CC(O)C7C(=O)N(C)CC(=O)N(C)C(C(C)C)C(=O)OC6C)ccc(C)c5oc-4c(C)c(=O)c3N)C(CO)OC(=O)C(C)N(C)C(=O)CN(C)C(=O)C12 (centres undefined) ?
Reply: 0.869 µM (active)

Task item: Queued: CSc1nc(O)c(C#N)c(-c2ccccc2)n1
Reply: > 100 µM (inactive)

Task item: What do you have for CSc1ccc(/C=C2\N=C(c3ccccc3)N(/N=C/c3cc4cc(C)ccc4nc3Cl)C2=O)cc1 ?
Reply: 16 µM (inactive)

Task item: Field entry: CC(C1=CC=C2[C@@H]3CCC4CC(N(C)C)CC[C@]4(C)C3CC[C@]12C)N(C)C=O (some centres undefined)
Reply: > 100 µM (inactive)

Task item: Ok, now O=C1CC(c2c[nH]c3ccccc23)C(=O)N1c1ccccc1 (centres undefined)
Reply: > 100 µM (inactive)

Task item: Follow-up entry: COC(=O)c1ccccc1/C=C1\Cc2ccc3c(c2C1=O)CCC3
Reply: > 100 µM (inactive)

Task item: // query: O=C(c1ccc(O)cc1)C1c2c3c(cc(O)c2C(c2ccc(O)cc2)C1c1cc(O)cc(O)c1)OC(c1ccc(O)cc1)C3c1cc2c(cc1O)OC(c1ccc(O)cc1)C2c1cc(O)cc(O)c1 (centres undefined)
Reply: > 12.5 µM (inactive)

Task item: Please answer likewise for COc1ccc2c(c1)/C(=C/CCN(C)C)c1ccccc1S2
Reply: 44.3 µM (inactive)

Task item: // same read-out, input: CC(C)C(=O)/C=C/c1ccccc1
Reply: > 100 µM (inactive)
